species on record: Cavia porcellus; assay: Evaluated for its potency in guinea pig trachea (GPT) spirals in the presence of increasing concentrations; format: functional
Below, each of the compounds is paired with its reported Kb value.
reported_metric: Kb

> print(dat)
                                   compound  reported.metric  experimental.value
1  O=C(O)CCC/C=C/CC1C2CCC(O2)C1CNC(=O)CNC(=O)CCCC1CCCCC1 (centres undefined)               Kb             0.07 nM
2  O=C(O)CCC/C=C/CC1C2CCC(O2)C1CNC(=O)CNC(=O)CCCCC1CCCCC1 (centres undefined)               Kb             0.07 nM
3  CC(C)(C)c1ccc(SCC(=O)NCC(=O)NCC2C3CCC(O3)C2C/C=C/CCCC(=O)O)cc1 (centres undefined)               Kb              0.1 nM
4  O=C(O)CCC/C=C/CC1C2CCC(O2)C1CNC(=O)CNC(=O)CSc1ccccc1 (centres undefined)               Kb              2.4 nM
